From: paper PMC10311354

# target.under.test: the molecule itself
# protocol.text: SDS-PAGE (Coomassie Brilliant Blue staining); purified recombinant rat Anxs on 4%-15% SDS-PAGE, denaturation buffer with beta-mercaptoethanol; dimeric forms seen as faint bands beside the monomer; nature of the dimers not known (disulfide or tight noncovalent)
result.type: binding result

[[record]]
protein = "rat Annexin A1 (natural protein, UniProt P07150 1-346, looked up, Annexin A1, rat, isoform X1, 346 aa, cDNA by RT-PCR from PC12 cells; The forward primer puts ATGGGT before the natural start codon, so Met-Gly may precede the natural Met; also called AnxA1; source: E. coli BL21 (DE3), purified (Ni2+-NTA, size exclusion chromatography)) MAMVSEFLKQACYIEKQEQEYVQAVKSYKGGPGSAVSPYPSFNPSSDVAALHKAIMVKGVDEATIIDILTKRTNAQRQQIKAAYLQETGKPLDETLKKALTGHLEEVVLAMLKTPAQFDADELRAAMKGLGTDEDTLIEILTTRSNQQIREITRVYREELKRDLAKDITSDTSGDFRNALLALAKGDRCEDMSVNQDLADTDARALYEAGERRKGTDVNVFNTILTTRSYPHLRKVFQNYRKYSQHDMNKALDLELKGDIEKCLTTIVKCATSTPAFFAEKLYEAMKGAGTRHKTLIRIMVSRSEIDMNEIKVFYQKKYGIPLCQAILDETKGDYEKILVALCGGN"
value = "binds"

[[record]]
protein = "rat Annexin A8 (natural protein, UniProt Q4FZU6 1-327, looked up, Annexin A8, rat, 327 aa, cDNA from total RNA of rat lung; The forward primer puts ATGGGT before the natural start codon, so Met-Gly may precede the natural Met; also called AnxA8; source: E. coli BL21 (DE3), purified (Ni2+-NTA, size exclusion chromatography)) MAWWKAWVEQEGVSVKGSSHFNPDPDAETLYKAMKGIGTNEQAIIDVLTKRSNVQRQQIAKSFKAQFGKDLTETLKSELSGKFERLIVALMYPPYRYEAKELHDAMKGLGTKEGVIIEILASRTKNQLREIMKAYEEDYGSTLEEDIQGDTSGYLERILVCLLQGCRDDVSGFVDPGLALQDAQDLHAAGEKILGTDEMKFITILCTRSATHLMRVFEEYEKIANKSIEDSIKSETHGSLEEAMLTVVKCTRNVHSYFAERLYYAMKGAGTLDGTLIRNIVSRSEIDLNLIKSQFQKMYGKTLSSMIMGDTSGYYKTALLNLVGTDL"
value = "binds"

[[record]]
protein = "rat Annexin A3 (natural protein, UniProt P14669 1-324, looked up, The forward primer puts ATGGGT before the natural start codon, so Met-Gly may precede the natural Met; also called AnxA3; source: E. coli BL21 (DE3), purified (Ni2+-NTA, size exclusion chromatography)) MAASLWVGPRGTINNYPGFNPSVDAEAIRKAIKGIGTDEKTLINILTERSNAQRQLIVKQYQEAYEQALKADLKGDLSGHFEHVMVALITAPAVFDAKQLKKSMRGMGTDEDTLIEILTTRTSRQMKEISQAYYTAYKKNLRDDISSETSGDFRKALLTLADGGRDESLKVDEHLAKKDAQTLYDAGEKKWGTDEDKFTEILCLRSFPQLKLTFDEYRNISQKDIEDSIKGELSGHFEDLLLAVVRCTRNTPAFLAGRLHQALKGAGTDEFTLNRIMVSRSEIDLLDIRREFKKHYGCSLYSAIQSDTSGDYRTVLLKICGGDD"
value = "binds"

